- TEST_SYSTEM: pooled human IgG (human IgG1,2,3 and 4)
ATTRIBUTE_MEASURED: Enzyme Activity Endpoint Assay: IgG

PROTEIN | OBSERVED_VALUE
PRT-185 (protein) MANQEIRYSEVTPYHVTSVWTKGVTPPANFRQGEDVFAAPYVANQGWYDITKTFNGKDDLLCGAATAGNMLHWWFDQNKDQIKRYLEEHPEKQKINFNGEQMFDVKELNTYESDHGYRDKSKLFEYFKEKAFPYLSTKHLGVFPDHVIDMFINGYRLSLTNHGPTPVKEGSKDPRGGIFDAVFTRGDQSKLLTSRHDFKEKNLKEISDLIKKELTEGKALGLSHTYANVRINHVINLWGADFDSNGNLKAIYVTDSDDKKLTIGDERIGMKKYFVGVNSAGKVAISAKEIKEDNIGAQVLGLFTLSTGQDSWNQTN | 365 ng/µL
PRT-301 (protein) MVTSVWTKGVTPPTDFIKGEDVFHAPYDAGQGWYDITKTFNGKDDLLCGAATAGNMLHWWFDQNKEYIEAYLKKHPEKQKIMFGDQELLDVRKAINTKGSQKNSELFNYFRDKAFPNLSARRLGVMPDLVLDMFINGYYLNVTKTQTTDVNRTYQEKDKRGGIFDAVFTRGDQSKLLTSRHDFKEKGLKEISDLIKQELTEGKALGLSHTYANVRISHVINLWGADFDSDGNLKAIYVTDSDSNASIGMKKYFVGVNSAGKVAISAKEIKEDNIGAQVLGLFTLSTGQDIWNQTN | 1680 ng/µL
